- SYSTEM NAME: HiBit-BRM fusion protein (Homo sapiens)
- Construct: expressed in transfected cells
- EXPERIMENTAL DETAILS: HiBiT-BRM cell-based degradation assay (Nano-Glo HiBiT Lytic Detection, 24 h)
- RUN CONDITIONS: stable HeLa cell line expressing HiBiT-BRM, read-out: BRM HiBit Degradation IC50
PARAMETER: DC50

Known DC50 results, listed for orientation:
Cc1ncsc1-c1ccc([C@H](C)NC(=O)[C@@H]2C[C@@H](O)CN2C(=O)[C@@H](c2cc(-c3cnc(N4CC[C@@H](c5sc6nnc(-c7ccccc7O)cc6c5C5CC5)C4)nc3)no2)C(C)C)cc1
> 10 nM
Cc1ncsc1-c1ccc([C@H](C)NC(=O)[C@@H]2C[C@@H](O)CN2C(=O)[C@@H](c2cc(N3CCC4(CC[C@@H](c5sc6nnc(-c7ccccc7O)cc6c5C)C4)CC3)no2)C(C)C)cc1
< 10 nM

For the 3 molecules below, give their DC50 values.
1. Cc1ncsc1-c1ccc([C@H](C)NC(=O)[C@@H]2C[C@@H](O)CN2C(=O)[C@@H](c2cc(N3CC4(CC(c5sc6nnc(-c7ccccc7O)cc6c5C5CC5)C4)C3)no2)C(C)C)cc1
2. Cc1ncsc1-c1ccc([C@H](C)NC(=O)[C@@H]2C[C@@H](O)CN2C(=O)[C@@H](c2cc(-c3cnc(N4CC[C@H](c5sc6nnc(-c7ccccc7O)cc6c5C)C4)nc3)no2)C(C)C)cc1
3. Cc1ncsc1-c1ccc([C@H](C)NC(=O)[C@@H]2C[C@@H](O)CN2C(=O)[C@@H](c2cc(Oc3cnc(N4CCC(c5sc6nnc(-c7ccccc7O)cc6c5C)CC4)nc3)no2)C(C)C)cc1 (single isomer, unassigned)

Output line:
["< 10 nM", "< 10 nM", "> 10 nM"]

---

- SYSTEM NAME: HiBit-BRG1 fusion protein (Homo sapiens, UniProt P51532)
- Construct: expressed in transfected cells
- Sequence (P51532 whole entry, the tested form may be a part): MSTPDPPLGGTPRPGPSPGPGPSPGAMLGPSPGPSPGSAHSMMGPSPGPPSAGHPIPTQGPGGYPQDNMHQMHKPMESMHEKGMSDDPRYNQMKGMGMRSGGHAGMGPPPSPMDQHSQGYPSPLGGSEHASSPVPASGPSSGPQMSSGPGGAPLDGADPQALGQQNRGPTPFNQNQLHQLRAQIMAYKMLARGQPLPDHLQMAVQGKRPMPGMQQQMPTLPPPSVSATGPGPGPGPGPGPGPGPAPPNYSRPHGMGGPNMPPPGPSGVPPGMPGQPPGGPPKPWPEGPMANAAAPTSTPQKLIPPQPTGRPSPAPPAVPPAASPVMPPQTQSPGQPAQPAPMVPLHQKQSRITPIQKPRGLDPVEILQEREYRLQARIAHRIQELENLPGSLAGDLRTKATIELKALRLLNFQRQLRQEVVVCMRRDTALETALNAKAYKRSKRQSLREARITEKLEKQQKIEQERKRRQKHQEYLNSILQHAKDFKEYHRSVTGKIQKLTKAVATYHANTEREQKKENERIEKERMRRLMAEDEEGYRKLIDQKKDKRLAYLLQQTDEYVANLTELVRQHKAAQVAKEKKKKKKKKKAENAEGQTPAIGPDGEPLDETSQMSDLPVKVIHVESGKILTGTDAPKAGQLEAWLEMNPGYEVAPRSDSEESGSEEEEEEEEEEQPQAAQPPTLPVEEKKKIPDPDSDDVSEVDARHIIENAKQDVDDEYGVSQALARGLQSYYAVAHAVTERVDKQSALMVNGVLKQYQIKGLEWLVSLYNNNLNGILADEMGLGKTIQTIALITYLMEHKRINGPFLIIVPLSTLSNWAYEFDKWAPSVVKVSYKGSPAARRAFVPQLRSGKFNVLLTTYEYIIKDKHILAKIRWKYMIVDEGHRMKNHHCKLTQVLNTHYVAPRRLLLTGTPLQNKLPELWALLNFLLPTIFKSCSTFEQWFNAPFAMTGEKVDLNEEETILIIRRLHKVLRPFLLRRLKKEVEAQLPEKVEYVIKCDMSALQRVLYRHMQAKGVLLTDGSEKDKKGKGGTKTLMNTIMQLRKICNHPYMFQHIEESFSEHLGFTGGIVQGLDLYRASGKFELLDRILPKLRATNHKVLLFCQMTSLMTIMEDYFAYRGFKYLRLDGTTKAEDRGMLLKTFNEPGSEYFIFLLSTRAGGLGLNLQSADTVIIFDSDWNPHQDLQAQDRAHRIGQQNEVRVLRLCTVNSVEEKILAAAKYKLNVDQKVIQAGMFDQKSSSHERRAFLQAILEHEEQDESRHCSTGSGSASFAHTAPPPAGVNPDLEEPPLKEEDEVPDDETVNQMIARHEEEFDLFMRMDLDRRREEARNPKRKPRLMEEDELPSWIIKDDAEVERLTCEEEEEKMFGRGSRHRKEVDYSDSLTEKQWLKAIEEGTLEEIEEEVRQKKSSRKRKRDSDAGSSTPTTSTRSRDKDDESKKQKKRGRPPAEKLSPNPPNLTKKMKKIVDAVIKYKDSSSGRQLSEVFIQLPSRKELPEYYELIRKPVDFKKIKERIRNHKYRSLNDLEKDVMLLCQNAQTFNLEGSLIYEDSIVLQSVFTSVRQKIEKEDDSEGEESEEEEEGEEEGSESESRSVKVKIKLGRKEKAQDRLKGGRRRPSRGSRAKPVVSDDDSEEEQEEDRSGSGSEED
- EXPERIMENTAL DETAILS: HiBiT-BRG1 cell-based degradation assay (Nano-Glo HiBiT Lytic Detection, 24 h)
- RUN CONDITIONS: stable HeLa cell line expressing HiBit-BRG1 and LgBit, read-out: BRMG1 HiBit Degradation IC50
PARAMETER: DC50

Known DC50 results, listed for orientation:
Cc1ncsc1-c1ccc([C@H](C)NC(=O)[C@@H]2C[C@@H](O)CN2C(=O)[C@@H](c2cc(-c3cnc(N4CC[C@@H](c5sc6nnc(-c7ccccc7O)cc6c5C)C[C@H]4C)nc3)no2)C(C)C)cc1
> 1000 nM
Cc1ncsc1-c1ccc([C@H](C)NC(=O)[C@@H]2C[C@@H](O)CN2C(=O)[C@@H](c2cc(-c3cnc(N4CCN(c5sc6nnc(-c7ccccc7O)cc6c5C)CC4)nc3)no2)C(C)C)cc1
> 10 nM

For the 2 molecules below, give their DC50 values.
1. Cc1ncsc1-c1ccc([C@H](C)NC(=O)[C@@H]2C[C@@H](O)CN2C(=O)[C@@H](c2cc(N3C[C@@H]4[C@H](C3)[C@H]4c3sc4nnc(-c5ccccc5O)cc4c3C)no2)C(C)C)cc1
2. Cc1ncsc1-c1ccc([C@H](C)NC(=O)[C@@H]2C[C@@H](O)CN2C(=O)[C@@H](c2cc(-c3cnc(N4CCC(c5sc6nnc(-c7cccc(Cl)c7O)cc6c5C)CC4)nc3)no2)C(C)C)cc1

Output line:
["> 10 nM", "> 1000 nM"]

Input line: Request the reported DC50 associated with "Cc1ncsc1-c1ccc([C@H](C)NC(=O)[C@@H]2C[C@@H](O)CN2C(=O)[C@@H](c2cc(-c3cnc(N4CC[C@@H](c5sc6nnc(-c7ccccc7O)cc6c5C)[C@H](C)C4)nc3)no2)C(C)C)cc1"
Output line: > 1000 nM

---

Please provide measured Dmax for the entries that follow.
- SYSTEM NAME: HiBit-BRG1 fusion protein (Homo sapiens)
- Construct: expressed in transfected cells
- EXPERIMENTAL DETAILS: HiBiT-BRG1 cell-based degradation assay (Nano-Glo HiBiT Lytic Detection, 24 h)
- RUN CONDITIONS: stable HeLa cell line expressing HiBit-BRG1 and LgBit, read-out: BRG1 HiBit Degradation Maximum (%)

Known Dmax results, listed for orientation:
Cc1ncsc1-c1ccc([C@H](C)NC(=O)[C@@H]2C[C@@H](O)CN2C(=O)[C@@H](c2cc(-c3cnc(N4CC(c5sc6nnc(-c7ccccc7O)cc6c5C)C4)nc3)no2)C(C)C)cc1 (single isomer, unassigned)
< 50%
Cc1ncsc1-c1ccc([C@H](C)NC(=O)[C@@H]2C[C@@H](O)CN2C(=O)[C@@H](c2cc(-c3cnc(N4C[C@@H]5[C@H](C4)[C@H]5c4sc5nnc(-c6ccccc6O)cc5c4C)nc3)no2)C(C)C)cc1 (stereo in doubt)
< 50%
Cc1ncsc1-c1ccc([C@H](C)NC(=O)[C@@H]2C[C@@H](O)CN2C(=O)[C@@H](c2cc(-c3cnc(N4C[C@H]5C[C@@H](C4)[C@H]5c4cc5cc(-c6ccccc6O)nnc5s4)nc3)no2)C(C)C)cc1
< 50%
Cc1ncsc1-c1ccc([C@H](C)NC(=O)[C@@H]2C[C@@H](O)CN2C(=O)C(c2cc(Oc3nccc(N4CCC(c5sc6nnc(-c7ccccc7O)cc6c5C)CC4)n3)no2)C(C)C)cc1 (single isomer, unassigned)
< 50%
Cc1ncsc1-c1ccc([C@H](C)NC(=O)[C@@H]2C[C@@H](O)CN2C(=O)[C@@H](c2cc(-c3ccc(N4CCC(c5cc6cc(-c7ccccc7O)nnc6s5)CC4)nn3)no2)C(C)C)cc1
< 50%

For the 4 compounds below, give their Dmax values.
1. Cc1ncsc1-c1ccc([C@H](C)NC(=O)[C@@H]2C[C@@H](O)CN2C(=O)[C@@H](c2cc(-c3ccc(N4CC(c5cc6cc(-c7ccccc7O)nnc6s5)C4)nn3)no2)C(C)C)cc1
2. Cc1ncsc1-c1ccc([C@H](C)NC(=O)[C@@H]2C[C@@H](O)CN2C(=O)[C@@H](c2cc(-c3cnc(N4CCC(c5sc6nnc(-c7ccccc7O)cc6c5C)CC4)cn3)no2)C(C)C)cc1
3. Cc1ncsc1-c1ccc([C@H](C)NC(=O)[C@@H]2C[C@@H](O)CN2C(=O)[C@@H](c2cc(N3CC4(C3)CN(c3sc5nnc(-c6ccccc6O)cc5c3C)C4)no2)C(C)C)cc1
4. Cc1cc(N2CC[C@@H](c3sc4nnc(-c5ccccc5O)cc4c3C)C2)ncc1-c1cc([C@H](C(=O)N2C[C@H](O)C[C@H]2C(=O)N[C@@H](C)c2ccc(-c3scnc3C)cc2)C(C)C)on1

Output line:
["> 50%", "< 50%", "> 50%", "< 50%"]

---

- SYSTEM NAME: HiBit-BRM fusion protein (Homo sapiens, UniProt P51531)
- Construct: expressed in transfected cells
- Sequence (P51531 whole entry, the tested form may be a part): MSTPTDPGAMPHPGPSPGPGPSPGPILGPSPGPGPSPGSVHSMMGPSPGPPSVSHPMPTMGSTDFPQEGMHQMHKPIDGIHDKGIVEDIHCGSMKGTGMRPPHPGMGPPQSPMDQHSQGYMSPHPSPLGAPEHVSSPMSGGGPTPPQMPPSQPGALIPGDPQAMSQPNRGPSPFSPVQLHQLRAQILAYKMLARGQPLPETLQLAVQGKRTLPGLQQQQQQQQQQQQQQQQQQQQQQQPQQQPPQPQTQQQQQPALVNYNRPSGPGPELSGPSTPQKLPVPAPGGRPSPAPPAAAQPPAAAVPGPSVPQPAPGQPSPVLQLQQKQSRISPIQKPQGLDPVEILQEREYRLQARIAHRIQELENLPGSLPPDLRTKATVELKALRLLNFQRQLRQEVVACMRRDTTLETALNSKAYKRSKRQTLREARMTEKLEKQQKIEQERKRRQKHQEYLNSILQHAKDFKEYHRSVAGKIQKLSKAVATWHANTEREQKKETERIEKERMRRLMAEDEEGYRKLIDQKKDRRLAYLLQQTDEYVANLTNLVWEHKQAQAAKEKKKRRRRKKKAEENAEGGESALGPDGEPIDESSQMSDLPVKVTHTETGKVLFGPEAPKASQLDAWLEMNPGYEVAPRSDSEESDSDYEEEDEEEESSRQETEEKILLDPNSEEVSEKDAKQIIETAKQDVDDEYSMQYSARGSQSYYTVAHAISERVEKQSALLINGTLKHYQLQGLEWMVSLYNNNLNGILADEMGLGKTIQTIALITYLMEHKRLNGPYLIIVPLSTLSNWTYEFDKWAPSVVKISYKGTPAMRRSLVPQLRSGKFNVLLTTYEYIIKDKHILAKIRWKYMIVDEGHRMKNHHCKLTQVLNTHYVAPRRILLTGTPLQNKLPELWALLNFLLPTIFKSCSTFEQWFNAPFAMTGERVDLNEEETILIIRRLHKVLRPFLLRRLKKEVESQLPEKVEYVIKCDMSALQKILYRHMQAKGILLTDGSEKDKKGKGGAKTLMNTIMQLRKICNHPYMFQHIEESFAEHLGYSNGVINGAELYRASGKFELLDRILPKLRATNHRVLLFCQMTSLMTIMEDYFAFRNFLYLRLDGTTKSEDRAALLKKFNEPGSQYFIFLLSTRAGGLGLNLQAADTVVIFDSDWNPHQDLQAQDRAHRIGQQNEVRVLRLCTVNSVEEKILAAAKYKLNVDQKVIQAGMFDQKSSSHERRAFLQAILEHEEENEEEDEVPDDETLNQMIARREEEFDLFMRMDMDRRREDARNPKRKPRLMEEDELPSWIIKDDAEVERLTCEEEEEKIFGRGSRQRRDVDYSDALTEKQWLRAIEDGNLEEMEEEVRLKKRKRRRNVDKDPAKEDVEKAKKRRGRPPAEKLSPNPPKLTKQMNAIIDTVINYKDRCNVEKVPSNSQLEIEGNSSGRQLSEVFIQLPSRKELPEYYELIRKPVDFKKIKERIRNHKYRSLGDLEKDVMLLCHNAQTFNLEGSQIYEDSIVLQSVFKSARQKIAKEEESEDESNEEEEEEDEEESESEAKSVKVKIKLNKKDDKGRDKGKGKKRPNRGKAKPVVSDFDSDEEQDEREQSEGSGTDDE
- EXPERIMENTAL DETAILS: HiBiT-BRM cell-based degradation assay (Nano-Glo HiBiT Lytic Detection, 24 h)
- RUN CONDITIONS: stable HeLa cell line expressing HiBiT-BRM, read-out: BRM HiBit Degradation IC50
PARAMETER: DC50

Known DC50 results, listed for orientation:
Cc1ncsc1-c1ccc([C@H](C)NC(=O)[C@@H]2C[C@@H](O)CN2C(=O)[C@@H](c2cc(N3CC[C@@H](c4cc5nnc(-c6ccccc6O)cc5s4)C3)no2)C(C)C)cc1
< 10 nM
Cc1ncsc1-c1ccc([C@H](C)NC(=O)[C@@H]2C[C@@H](O)CN2C(=O)[C@@H](c2cc(-c3ccc(N4CCC(c5sc6nnc(-c7ccccc7O)cc6c5C)CC4)cc3)no2)C(C)C)cc1
< 10 nM

Below: the item to evaluate.
Input line: Request the reported DC50 associated with "Cc1ncsc1-c1ccc([C@H](C)NC(=O)[C@@H]2C[C@@H](O)CN2C(=O)[C@@H](c2cc(-c3cnc(N4CCC(c5sc6nnc(-c7ccccc7O)cc6c5C5CC5)CC4)nc3)no2)C(C)C)cc1"
Output line: > 10 nM

---

- SYSTEM NAME: HiBit-BRG1 fusion protein (Homo sapiens, UniProt P51532)
- Construct: expressed in transfected cells
- EXPERIMENTAL DETAILS: HiBiT-BRG1 cell-based degradation assay (Nano-Glo HiBiT Lytic Detection, 24 h)
- RUN CONDITIONS: stable HeLa cell line expressing HiBit-BRG1 and LgBit, read-out: BRMG1 HiBit Degradation IC50
Please provide measured DC50 for the entries that follow.

Cc1nc(N2CCC(c3sc4nnc(-c5ccccc5O)cc4c3C)CC2)ccc1-c1noc([C@H](C(=O)N2C[C@H](O)C[C@H]2C(=O)N[C@@H](C)c2ccc(-c3scnc3C)cc2)C(C)C)c1C
> 10 nM
Cc1nc(N2CCC(c3sc4nnc(-c5ccccc5O)cc4c3C)CC2)ccc1-c1noc(C(C(=O)N2C[C@H](O)C[C@H]2C(=O)N[C@@H](C)c2ccc(-c3scnc3C)cc2)C(C)C)c1Cl (stereo in doubt)
> 100 nM
Cc1ncsc1-c1ccc([C@H](C)NC(=O)[C@@H]2C[C@@H](O)CN2C(=O)[C@@H](c2cc(-c3cnc(N4CC[C@@H](c5sc6nnc(-c7ccccc7O)cc6c5C)C4)nc3)no2)C(C)C)cc1
< 10 nM

For the 2 molecules below, give their DC50 values.
1. Cc1ncsc1-c1ccc([C@H](C)NC(=O)[C@@H]2C[C@@H](O)CN2C(=O)[C@@H](c2cc(-c3cnc(N4CC5(CC(c6sc7nnc(-c8ccccc8O)cc7c6C)C5)C4)nc3)no2)C(C)C)cc1
2. Cc1ncsc1-c1ccc([C@H](C)NC(=O)[C@@H]2C[C@@H](O)CN2C(=O)[C@@H](c2cc(-c3ccc(N4CCC(c5cc6cc(-c7ccccc7O)nnc6s5)CC4)nn3)no2)C(C)C)cc1

Output line:
["> 1000 nM", "> 1000 nM"]
